The reported measurements were obtained from patent US12357603B2.

test system: ZR-75-1 cells; assay: Proliferation assay ZR-75-1 (Alamar Blue, 144 h); type: cell-based; conditions: Homo sapiens, ZR-75-1, 144 h, arithmetic mean, read-out: ZR75-1 proliferation assay, EC50 [M] (arithmetic mean)
Let's look at some molecules and their measured EC50.
measured-property: EC50 (M)

{"cpd-smiles": "CN(C)c1ccc2cc(C(=O)NS(=O)(=O)c3cc(C(C)(C)C)ccc3OC3CCC3)oc2c1", "measured-property": "EC50", "censoring-sign": "=", "measured-value": "6.1e-08"}
{"cpd-smiles": "CCOc1ccccc1S(=O)(=O)NC(=O)c1cc2ccc(N(C)CCOC)cc2o1", "measured-property": "EC50", "censoring-sign": "=", "measured-value": "1.01e-05"}
{"cpd-smiles": "CN(C)c1ccc2cc(C(=O)NS(=O)(=O)c3ccccc3-c3ccc(CO)cc3)oc2c1", "measured-property": "EC50", "censoring-sign": "=", "measured-value": "1.01e-07"}
{"cpd-smiles": "Cc1ccc2cccc(S(=O)(=O)NC(=O)c3cc4cc(C#N)c(N(C)C)cc4o3)c2n1", "measured-property": "EC50", "censoring-sign": "=", "measured-value": "9.4e-06"}
{"cpd-smiles": "CCCN(C)c1ccc2cc(C(=O)NS(=O)(=O)c3ccccc3-c3ccccc3)oc2c1", "measured-property": "EC50", "censoring-sign": ">", "measured-value": "2e-05"}
{"cpd-smiles": "CCCCN(CCCC)c1ccc2cc(C(=O)NS(=O)(=O)c3ccccc3-c3ccccc3)oc2c1", "measured-property": "EC50", "censoring-sign": "=", "measured-value": "8.3e-06"}
{"cpd-smiles": "Cc1ccc2cccc(S(=O)(=O)NC(=O)c3cc4cc(Cl)c(N(C)C)cc4o3)c2n1", "measured-property": "EC50", "censoring-sign": ">", "measured-value": "2e-05"}
{"cpd-smiles": "CN(C)c1cc2oc(C(=O)NS(=O)(=O)c3ccccc3-c3ccccc3)cc2cc1Br", "measured-property": "EC50", "censoring-sign": "=", "measured-value": "8.13e-06"}

====

system: ZR-75-1 cells; test: Proliferation assay ZR-75-1 (Alamar Blue, 144 h); type: cell-based; settings: Homo sapiens, ZR-75-1, 144 h, arithmetic mean, read-out: ZR75-1 proliferation assay, EC50 [M] (arithmetic mean)
measured-property: EC50

{"molecule": "CCOc1cccnc1S(=O)(=O)NC(=O)c1cc2ccc(N(C)C)cc2o1", "measured-property": "EC50", "measured-value": "1.4e-06 M"}
{"molecule": "CN(C)c1ccc2cc(C(=O)NS(=O)(=O)C3CCOCC3)oc2c1", "measured-property": "EC50", "measured-value": "4.73e-06 M"}
{"molecule": "CCOc1ccc(C)cc1S(=O)(=O)NC(=O)c1cc2ccc(N(C)C)cc2o1", "measured-property": "EC50", "measured-value": "4.08e-08 M"}
{"molecule": "CCOc1nccc(C(F)(F)F)c1S(=O)(=O)NC(=O)c1cc2ccc(N(C)C)cc2o1", "measured-property": "EC50", "measured-value": "4.57e-07 M"}
{"molecule": "O=C(NS(=O)(=O)c1ccccc1-c1ccccc1)c1cc2ccc(N3CCCCC3)cc2o1", "measured-property": "EC50", "measured-value": "> 2e-05 M"}
{"molecule": "CC(C)c1ccc(OC2CCC2)c(S(=O)(=O)NC(=O)c2cc3ccc(N(C)C)cc3o2)c1", "measured-property": "EC50", "measured-value": "6.98e-07 M"}
{"molecule": "Cc1ccc2cccc(S(=O)(=O)NC(=O)c3cc4cc(Br)c(N(C)C)cc4o3)c2n1", "measured-property": "EC50", "measured-value": "> 2e-05 M"}
{"molecule": "CCCNc1ncc(Br)cc1S(=O)(=O)NC(=O)c1cc2ccc(N(C)C)cc2o1", "measured-property": "EC50", "measured-value": "> 2e-05 M"}
{"molecule": "CN(C)c1ccc2cc(C(=O)NS(=O)(=O)c3ccccc3OCC(F)F)oc2c1", "measured-property": "EC50", "measured-value": "1.65e-07 M"}
{"molecule": "CC(C)Oc1ccc(C(C)(C)C)cc1S(=O)(=O)NC(=O)c1cc2ccc(N(C)C)cc2o1", "measured-property": "EC50", "measured-value": "7.53e-08 M"}
{"molecule": "COc1ccc(Br)cc1S(=O)(=O)NC(=O)c1cc2ccc(N(C)C)cc2o1", "measured-property": "EC50", "measured-value": "1.28e-07 M"}
{"molecule": "CCNc1ccc2cc(C(=O)NS(=O)(=O)c3ccccc3OCC)oc2c1", "measured-property": "EC50", "measured-value": "4.19e-06 M"}
{"molecule": "CN(C)c1cc2oc(C(=O)NS(=O)(=O)c3ccccc3OC3CC3)cc2cc1Br", "measured-property": "EC50", "measured-value": "> 2e-05 M"}
{"molecule": "CCOc1ccc(C(C)CC)cc1S(=O)(=O)NC(=O)c1cc2ccc(N(C)C)cc2o1 (racemic)", "measured-property": "EC50", "measured-value": "3.02e-08 M"}
{"molecule": "CN(C)c1ccc2cc(C(=O)NS(=O)(=O)c3ccccc3F)oc2c1", "measured-property": "EC50", "measured-value": "5.78e-07 M"}
{"molecule": "Cc1ccccc1S(=O)(=O)NC(=O)c1cc2ccc(N(C)C)cc2o1", "measured-property": "EC50", "measured-value": "3.78e-07 M"}
{"molecule": "CN(C)c1ccc2cc(C(=O)NS(=O)(=O)c3ccccc3OC(F)(F)C(F)(F)F)oc2c1", "measured-property": "EC50", "measured-value": "1e-06 M"}
